Entries and their measured z-score follow.
method.description: P. aeruginosa biofilm formation inhibitors, primary screen, strain PAO1, LB-PBS medium, absorbance 600 nm (AID 1176); further: test concentration not given here
condition.info: P. aeruginosa PAO1 growth/biofilm, A600, 12 h; higher = more signal
result.type: z-score

compound="CCOc1cc(C(O)C2C=CC3C(=O)N(C4CCCCC4)C(=O)C3N2Nc2ccc(OC)cc2)ccc1O (stereo not given)" result_type=z-score endpoint_value=0.698
compound="CC1CC/C=C\\[C@H]2OC34C=CCN(CCN5CCOCC5)C(=O)[C@H]3N(CCO)C(=O)[C@@H]4C2C(=O)O1 (stereo not given in full)" result_type=z-score endpoint_value=0.826
compound="CC=CC(O)C1C=CC2C(=O)N(C)C(=O)C2N1N1CCCCC1 (stereo not given)" result_type=z-score endpoint_value=0.378
compound=Cc1ccc(F)cc1S(=O)(=O)N[C@@H]1CCN(Cc2ccc(OC(C)C)cc2)C1 result_type=z-score endpoint_value=-0.225
compound=O=C(CS)NCCCCCCNC(=O)[C@H]1C[C@H]2C(=O)N[C@@H](Cc3ccccc3)C(=O)N2[C@H]1c1cccc(OCCO)c1 result_type=z-score endpoint_value=0.889
compound=COC(=O)[C@@]1(Cc2ccccc2)[C@H]2c3cc(C(=O)N4CCCC4)[nH]c3C[C@H]2CN1C(=O)c1ccccc1 result_type=z-score endpoint_value=0.026
compound=O=C1O[C@@H](c2ccccc2)[C@@H](c2ccccc2)N2[C@@H](c3ccccc3OCCO)[C@]3(C(=O)Nc4ccc(C#CC5=CCCCC5)cc43)[C@@H](C(=O)NC[C@H](O)c3ccccc3)[C@H]12 result_type=z-score endpoint_value=0.787
compound="CC[C@H]1C2=C3C(CC[C@H]4C(OCc5ccc(F)cc5C(F)(F)F)OC[C@](C)([C@@H]34)N(C(=O)OC(C)(C)C)C2)C2COC(=O)OCC21 (stereo not given in full)" result_type=z-score endpoint_value=0.551
compound="CCCCC(CC)C(O)C1C=CC2C(=O)N(c3ccccc3)C(=O)C2N1Nc1ccc([N+](=O)[O-])cc1 (stereo not given)" result_type=z-score endpoint_value=0.837
compound=COCCOC(=O)N1C(=O)[C@@]2(c3ccccc31)[C@H](c1ccc(OCCO)cc1)N1[C@H](c3ccccc3)[C@H](c3ccccc3)OC(=O)[C@H]1[C@@H]2C(=O)Nc1nc2ccccc2s1 result_type=z-score endpoint_value=2
compound=CC(C)CN1C(=O)[C@@]2(c3ccc([N+](=O)[O-])cc3)CC(=O)N(CC34CC5CC(CC(C5)C3)C4)[C@@H]2c2ccc(CO)cc21 result_type=z-score endpoint_value=0.146
compound=Cc1ccc(F)cc1S(=O)(=O)N[C@@H]1CCN(Cc2ccc(Oc3ccccc3)cc2)C1 result_type=z-score endpoint_value=-0.177
compound=CCOC(=O)C1=CC[C@@H](c2ccc([N+](=O)[O-])cc2)N(S(=O)(=O)c2ccc(C)cc2)[C@H]1c1ccccc1 result_type=z-score endpoint_value=0.229
compound=C=C[C@@H](C)[C@H](OC(=O)Nc1ccc(SC)cc1)c1ccc(OCCO)cc1 result_type=z-score endpoint_value=0.638
compound=C=C(CCCC)/C(=C/C[C@@H](OC(=O)c1ccncc1)c1cccc(OCCO)c1)c1cnc2ccccc2c1 result_type=z-score endpoint_value=2.24
